- assayed.target: T1, Elastase from human neutrophils (human, UniProt P08246 30-247, limits assumed)
- T1 sequence (looked up): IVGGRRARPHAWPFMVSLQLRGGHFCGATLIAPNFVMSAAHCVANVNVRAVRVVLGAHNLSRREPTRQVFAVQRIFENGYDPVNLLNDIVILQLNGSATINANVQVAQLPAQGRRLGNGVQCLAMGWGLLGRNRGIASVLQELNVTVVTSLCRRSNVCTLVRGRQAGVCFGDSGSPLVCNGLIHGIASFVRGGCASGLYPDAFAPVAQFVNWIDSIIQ
- experimental.protocol: cell-based or functional assay
Bridges are numbered along the chain shown (N, C = ends). [ ]: non-standard residue; d: D form. Nle = CCCC[C@H](N)C(=O)O; Abu = CC[C@H](N)C(=O)O
assay.readout: IC50

Observe how each entry below is paired with its result.
binder="ICTKSDPPXCR (HELM PEPTIDE1{I.C.T.K.S.D.P.P.[Cha].C.R.[dP].P}$PEPTIDE1,PEPTIDE1,2:R3-10:R3|PEPTIDE1,PEPTIDE1,1:R1-13:R2$$$V2.0; SMILES CC[C@H](C)[C@@H]1NC(=O)[C@@H]2CCCN2C(=O)[C@H]2CCCN2C(=O)[C@H](CCCNC(=N)N)NC(=O)[C@@H]2CSSC[C@H](NC1=O)C(=O)N[C@@H]([C@@H](C)O)C(=O)N[C@@H](CCCCN)C(=O)N[C@@H](CO)C(=O)N[C@@H](CC(=O)O)C(=O)N1CCC[C@H]1C(=O)N1CCC[C@H]1C(=O)N[C@@H](CC1CCCCC1)C(=O)N2) [Example 58]" test_value="> 100000 nmol"
binder="cyclo(FCTKSDPPICS[dP]L) (disulfide 2-10) [Example 51]" test_value="> 100000 nmol"
binder="ICTKSDPPQCR (HELM PEPTIDE1{I.C.T.K.S.D.P.P.Q.C.R.[dP].P}$PEPTIDE1,PEPTIDE1,2:R3-10:R3|PEPTIDE1,PEPTIDE1,1:R1-13:R2$$$V2.0; SMILES CC[C@H](C)[C@@H]1NC(=O)[C@@H]2CCCN2C(=O)[C@H]2CCCN2C(=O)[C@H](CCCNC(=N)N)NC(=O)[C@@H]2CSSC[C@H](NC1=O)C(=O)N[C@@H]([C@@H](C)O)C(=O)N[C@@H](CCCCN)C(=O)N[C@@H](CO)C(=O)N[C@@H](CC(=O)O)C(=O)N1CCC[C@H]1C(=O)N1CCC[C@H]1C(=O)N[C@@H](CCC(N)=O)C(=O)N2) [Example 55]" test_value="> 100000 nmol"

Incoming: Entry cyclo([Nle]CT[Abu]SIPPQCY[dP]P) (disulfide 2-10) [Example 78] has what IC50?
Outgoing: 29 nmol

Incoming: Same again, this time with FCTKSDPPICS (HELM PEPTIDE1{F.C.T.K.S.D.P.P.I.C.S.[dP].E}$PEPTIDE1,PEPTIDE1,2:R3-10:R3|PEPTIDE1,PEPTIDE1,1:R1-13:R2$$$V2.0; SMILES CC[C@H](C)[C@@H]1NC(=O)[C@@H]2CCCN2C(=O)[C@@H]2CCCN2C(=O)[C@H](CC(=O)O)NC(=O)[C@H](CO)NC(=O)[C@H](CCCCN)NC(=O)[C@H]([C@@H](C)O)NC(=O)[C@@H]2CSSC[C@H](NC1=O)C(=O)N[C@@H](CO)C(=O)N1CCC[C@@H]1C(=O)N[C@@H](CCC(=O)O)C(=O)N[C@@H](Cc1ccccc1)C(=O)N2) [Example 64]
Outgoing: > 100000 nmol

Incoming: Another binder to look at: ICTKSDPPXCR (HELM PEPTIDE1{I.C.T.K.S.D.P.P.[Nle].C.R.[dP].P}$PEPTIDE1,PEPTIDE1,2:R3-10:R3|PEPTIDE1,PEPTIDE1,1:R1-13:R2$$$V2.0; SMILES CCCC[C@@H]1NC(=O)[C@@H]2CCCN2C(=O)[C@@H]2CCCN2C(=O)[C@H](CC(=O)O)NC(=O)[C@H](CO)NC(=O)[C@H](CCCCN)NC(=O)[C@H]([C@@H](C)O)NC(=O)[C@@H]2CSSC[C@H](NC1=O)C(=O)N[C@@H](CCCNC(=N)N)C(=O)N1CCC[C@@H]1C(=O)N1CCC[C@H]1C(=O)N[C@@H]([C@@H](C)CC)C(=O)N2) [Example 57]
Outgoing: > 100000 nmol

Incoming: Likewise for FCTKSEPPICT (HELM PEPTIDE1{F.C.T.K.S.E.P.P.I.C.T.[dP].P}$PEPTIDE1,PEPTIDE1,2:R3-10:R3|PEPTIDE1,PEPTIDE1,1:R1-13:R2$$$V2.0; SMILES CC[C@H](C)[C@@H]1NC(=O)[C@@H]2CCCN2C(=O)[C@@H]2CCCN2C(=O)[C@H](CCC(=O)O)NC(=O)[C@H](CO)NC(=O)[C@H](CCCCN)NC(=O)[C@H]([C@@H](C)O)NC(=O)[C@@H]2CSSC[C@H](NC1=O)C(=O)N[C@@H]([C@@H](C)O)C(=O)N1CCC[C@@H]1C(=O)N1CCC[C@H]1C(=O)N[C@@H](Cc1ccccc1)C(=O)N2) [Example 1] ?
Outgoing: > 100000 nmol

Incoming: Same thing, different binder: FCTKSDPPXCS (HELM PEPTIDE1{F.C.T.K.S.D.P.P.[Cha].C.S.[dP].P}$PEPTIDE1,PEPTIDE1,2:R3-10:R3|PEPTIDE1,PEPTIDE1,1:R1-13:R2$$$V2.0; SMILES C[C@@H](O)[C@@H]1NC(=O)[C@@H]2CSSC[C@H](NC(=O)[C@H](CC3CCCCC3)NC(=O)[C@@H]3CCCN3C(=O)[C@@H]3CCCN3C(=O)[C@H](CC(=O)O)NC(=O)[C@H](CO)NC(=O)[C@H](CCCCN)NC1=O)C(=O)N[C@@H](CO)C(=O)N1CCC[C@@H]1C(=O)N1CCC[C@H]1C(=O)N[C@@H](Cc1ccccc1)C(=O)N2) [Example 54]
Outgoing: > 100000 nmol

Incoming: Also FCTKSDPPICD (HELM PEPTIDE1{F.C.T.K.S.D.P.P.I.C.D.[dP].P}$PEPTIDE1,PEPTIDE1,2:R3-10:R3|PEPTIDE1,PEPTIDE1,1:R1-13:R2$$$V2.0; SMILES CC[C@H](C)[C@@H]1NC(=O)[C@@H]2CCCN2C(=O)[C@@H]2CCCN2C(=O)[C@H](CC(=O)O)NC(=O)[C@H](CO)NC(=O)[C@H](CCCCN)NC(=O)[C@H]([C@@H](C)O)NC(=O)[C@@H]2CSSC[C@H](NC1=O)C(=O)N[C@@H](CC(=O)O)C(=O)N1CCC[C@@H]1C(=O)N1CCC[C@H]1C(=O)N[C@@H](Cc1ccccc1)C(=O)N2) [Example 2] ?
Outgoing: > 100000 nmol
